# conditions_used: 333.15 K; 101.33 kPa; Liquid; Concentric cylinders viscometry
measured_attribute: viscosity (mPa·s)

CC(C)C[P+](C)(CC(C)C)CC(C)C.Cc1ccc(S(=O)(=O)[O-])cc1 [triisobutylmethylphosphonium p-toluenesulfonate] : 230.1
CCCC[P+](C)(CCCC)CCCC.COS(=O)(=O)[O-] [tributylmethylphosphonium methyl sulfate] : 174.7
CCCC[P+](CC)(CCCC)CCCC.CCOP(=O)([O-])OCC [tributylethylphosphonium diethylphosphate] : 46.4
CCCCCCCC[P+](CCCCCCCC)(CCCCCCCC)CCCCCCCC.[Br-] [tetraoctylphosphonium bromide] : 178.7

---

# conditions_used: 348.15 K; 101.33 kPa; Liquid; Vibrating tube method
measured_attribute: mass density (kg/m3)

CCCCCCCC[P+](CCCCCCCC)(CCCCCCCC)CCCCCCCC.[Br-] [tetraoctylphosphonium bromide] : 926.8
CC(C)C[P+](C)(CC(C)C)CC(C)C.Cc1ccc(S(=O)(=O)[O-])cc1 [triisobutylmethylphosphonium p-toluenesulfonate] : 1043.1
CCCC[P+](CC)(CCCC)CCCC.CCOP(=O)([O-])OCC [tributylethylphosphonium diethylphosphate] : 977.6
CCCC[P+](C)(CCCC)CCCC.COS(=O)(=O)[O-] [tributylmethylphosphonium methyl sulfate] : 1037.3

---

# conditions_used: 333.1 K, Pendant drop shape
measured_attribute: surface tension liquid-gas (mN/m)

CCCC[P+](C)(CCCC)CCCC.COS(=O)(=O)[O-] [tributylmethylphosphonium methyl sulfate] : 32.2
CCCC[P+](CC)(CCCC)CCCC.CCOP(=O)([O-])OCC [tributylethylphosphonium diethylphosphate] : 27.5
CCCCCCCC[P+](CCCCCCCC)(CCCCCCCC)CCCCCCCC.[Br-] [tetraoctylphosphonium bromide] : 26.6
CC(C)C[P+](C)(CC(C)C)CC(C)C.Cc1ccc(S(=O)(=O)[O-])cc1 [triisobutylmethylphosphonium p-toluenesulfonate] : 34.3

---

# experimental_details: refractive index (Na D-line) (dimensionless)
# conditions_used: 318.15 K; 101.33 kPa; Liquid; Standard Abbe refractometry
measured_attribute: refractive index

CC(C)C[P+](C)(CC(C)C)CC(C)C.Cc1ccc(S(=O)(=O)[O-])cc1 [triisobutylmethylphosphonium p-toluenesulfonate] : 1.51233
CCCC[P+](CC)(CCCC)CCCC.CCOP(=O)([O-])OCC [tributylethylphosphonium diethylphosphate] : 1.45923
CCCCCCCC[P+](CCCCCCCC)(CCCCCCCC)CCCCCCCC.[Br-] [tetraoctylphosphonium bromide] : 1.48262
CCCC[P+](C)(CCCC)CCCC.COS(=O)(=O)[O-] [tributylmethylphosphonium methyl sulfate] : 1.46912

---

# experimental_details: refractive index (Na D-line) (dimensionless)
# conditions_used: 353.15 K; 101.33 kPa; Liquid; Standard Abbe refractometry
measured_attribute: refractive index

CC(C)C[P+](C)(CC(C)C)CC(C)C.Cc1ccc(S(=O)(=O)[O-])cc1 [triisobutylmethylphosphonium p-toluenesulfonate] : 1.50124
CCCCCCCC[P+](CCCCCCCC)(CCCCCCCC)CCCCCCCC.[Br-] [tetraoctylphosphonium bromide] : 1.47035
CCCC[P+](C)(CCCC)CCCC.COS(=O)(=O)[O-] [tributylmethylphosphonium methyl sulfate] : 1.45965
CCCC[P+](CC)(CCCC)CCCC.CCOP(=O)([O-])OCC [tributylethylphosphonium diethylphosphate] : 1.44718
